# System: HIV
# procedure.text: MT4 assay, antiviral HIV activity
# Format: cell-based
# condition.parameters: MT-4 cells (HTLV-1 transformed), read-out at 96 hours with cell titer glo
# Description: […] Luciferase activity was measured 96 hours later by adding a cell titer glo (Promega, Madison, Wis.). […] Under the same condition, cytotoxicity of the compounds was determined using cell titer Glo™ (Promega, Madison, Wis.). […]
This listing pairs compounds with measured IC50.
Answer with the value and then the unit.

compound	IC50
Cc1c(-c2c(C)c3c(c(C)c2[C@H](OC(C)(C)C)C(=O)O)CCN(c2ccccc2)CC3)cc(F)c2c1CCCO2 (atropisomer, axis not shown; (M)) [Example 19]	92 nM
Cc1c(-c2c(C)c3c(c(C)c2[C@H](OC(C)(C)C)C(=O)O)CCN(S(=O)(=O)N2CCCCC2)CC3)cc(F)c2c1CCCO2 (atropisomer, axis not shown; (M)) [Example 21]	8 nM
Cc1c(-c2c(C)c3c(c(C)c2[C@H](OC(C)(C)C)C(=O)O)CCN(C(=O)C(=O)N2CCCCC2)CC3)cc(F)c2c1CCCO2 (atropisomer, axis not shown; (M)) [Example 14]	17 nM
Cc1c(-c2c(C)c3c(c(C)c2[C@H](OC(C)(C)C)C(=O)O)CCN(C(=O)c2cccc(F)c2)CC3)cc(F)c2c1CCCO2 (atropisomer, axis not shown; (M)) [Example 5]	5 nM
Cc1c2c(c(C)c([C@H](OC(C)(C)C)C(=O)O)c1-c1ccccc1)CCN(C(=O)c1cccc(F)c1)CC2 [Example 3]	219 nM

// next item, IC50 requested
What value of IC50 on HIV does COc1cc(C(=O)N2CCc3c(C)c(-c4cc(F)c5c(c4C)CCCO5)c([C@H](OC(C)(C)C)C(=O)O)c(C)c3CC2)ccc1F (atropisomer, axis not shown; (M)) [Example 13] have?
4 nM

Reference for the values: patent US10239840B2
